# target: UniProt Q9UHD2
# Sequence (Q9UHD2 whole entry): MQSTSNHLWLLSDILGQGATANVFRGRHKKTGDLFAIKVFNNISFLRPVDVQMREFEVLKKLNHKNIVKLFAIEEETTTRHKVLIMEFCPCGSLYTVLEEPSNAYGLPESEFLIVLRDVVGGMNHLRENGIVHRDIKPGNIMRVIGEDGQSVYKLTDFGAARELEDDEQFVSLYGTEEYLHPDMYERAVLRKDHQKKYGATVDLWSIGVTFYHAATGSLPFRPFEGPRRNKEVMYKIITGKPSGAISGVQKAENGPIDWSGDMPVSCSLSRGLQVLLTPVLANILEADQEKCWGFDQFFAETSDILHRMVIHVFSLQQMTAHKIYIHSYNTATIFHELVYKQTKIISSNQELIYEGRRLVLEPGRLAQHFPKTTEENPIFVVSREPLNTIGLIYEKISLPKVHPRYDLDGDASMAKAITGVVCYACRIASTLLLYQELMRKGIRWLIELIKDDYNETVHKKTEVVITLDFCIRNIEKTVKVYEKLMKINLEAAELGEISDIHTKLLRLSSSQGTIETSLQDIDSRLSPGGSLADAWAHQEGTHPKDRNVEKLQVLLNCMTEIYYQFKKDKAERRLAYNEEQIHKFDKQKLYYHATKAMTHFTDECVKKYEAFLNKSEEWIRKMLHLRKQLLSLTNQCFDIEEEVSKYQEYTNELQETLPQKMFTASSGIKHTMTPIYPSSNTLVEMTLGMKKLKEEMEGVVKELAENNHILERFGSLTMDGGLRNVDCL
# method.description: TR-FRET kinase assay, TBK1
# setup.conditions: read-out: TBK1-IC50; full length recombinant TBK1 2.5 nM, 2x Km ATP, 1 μM peptide, 240 min at 25° C.; geometric mean of minimum four determinations
pIC50: −log10 of the molar value.
# pIC50 >= 8 gives 1 (yes), anything below gives 0 (no)

N#Cc1cc(-c2ncnc3[nH]c(-c4ccc(N5CCOCC5)cc4)nc23)ccc1OCC1CC1
0 (no)
N#Cc1cc(-c2ncnc3[nH]c(-c4cccc(CN5CCOCC5)c4)cc23)ccc1OC1CCN(C(=O)CO)CC1
1 (yes)
N#Cc1cc(-c2ncnc3[nH]c(-c4ccc(OCCN5CCCC5)cc4)cc23)ccc1OC1CCOCC1
1 (yes)
N#Cc1cc(-c2ncnc3[nH]c(-c4ccc(N5CCOCC5)cc4)nc23)ccc1OC1CCN(C(=O)CO)CC1
1 (yes)
N#Cc1cc(-c2ccnc3[nH]c(-c4ccc(N5CCOCC5)cc4)cc23)ccc1OC1CN(C(=O)CO)C1
0 (no)

In: Could you verify whether the entry N#Cc1cc(-c2ccnc3[nH]c(-c4ccc(N5CCOCC5)cc4)cc23)ccc1O[C@H]1CCNC1 shows pIC50 of no less than 8?
Out: 0 (no)

###

Consider the following compounds and their measured pIC50 readings.
# target: IKKε (Homo sapiens (Human), UniProt Q14164)
# Sequence (Q14164 whole entry): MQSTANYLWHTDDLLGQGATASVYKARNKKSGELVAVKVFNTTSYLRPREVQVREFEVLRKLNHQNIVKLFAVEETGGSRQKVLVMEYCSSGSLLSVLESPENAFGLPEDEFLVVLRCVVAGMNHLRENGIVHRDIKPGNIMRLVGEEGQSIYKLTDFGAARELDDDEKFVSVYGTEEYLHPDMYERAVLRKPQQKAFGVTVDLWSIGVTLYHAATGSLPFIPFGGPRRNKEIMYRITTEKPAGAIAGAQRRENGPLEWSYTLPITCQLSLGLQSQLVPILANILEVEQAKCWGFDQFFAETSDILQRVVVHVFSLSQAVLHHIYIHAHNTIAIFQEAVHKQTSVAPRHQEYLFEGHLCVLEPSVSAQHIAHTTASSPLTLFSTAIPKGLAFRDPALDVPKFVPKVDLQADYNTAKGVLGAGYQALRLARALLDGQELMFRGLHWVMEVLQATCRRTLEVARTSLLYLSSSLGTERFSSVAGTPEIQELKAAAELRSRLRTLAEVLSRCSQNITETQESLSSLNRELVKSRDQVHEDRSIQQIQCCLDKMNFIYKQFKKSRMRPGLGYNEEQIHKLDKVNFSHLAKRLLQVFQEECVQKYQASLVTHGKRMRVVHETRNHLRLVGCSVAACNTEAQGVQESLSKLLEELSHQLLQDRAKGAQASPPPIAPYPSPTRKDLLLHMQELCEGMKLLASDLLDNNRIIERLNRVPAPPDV
# method.description: TR-FRET kinase assay, IKKε
# setup.conditions: full length recombinant IKKε 0.3 nM, 2x Km ATP, 1 μM peptide, 240 min at 25° C.; geometric mean of minimum four determinations
# pIC50 is unitless: minus log10 of the molar concentration; print number only

COC(C)(C)c1ccc(-c2cc3c(-c4cc(C#N)c(OC5CCOCC5)cn4)ccnc3[nH]2)cc1
7.88

In: Requested read-out: pIC50. Entry: N#Cc1cc(-c2ccnc3[nH]c(C4=CCNC4)cc23)ccc1OC1CCOCC1
Out: 7.33

In: Requested read-out: pIC50. Entry: C[C@H](O)C(=O)N1CCC(Oc2ccc(-c3ncnc4[nH]c(-c5ccc(N6CCOCC6)cc5)nc34)cc2C#N)CC1
Out: 8.06

In: Requested read-out: pIC50. Entry: N#Cc1cc(-c2ccnc3[nH]c(-c4ccc(N)nc4)cc23)ccc1OC1CCOCC1
Out: 8.02

In: Requested read-out: pIC50. Entry: N#Cc1cc(-c2ccnc3[nH]c(C4=CCN(C5COC5)C4)cc23)ccc1OC1CCOCC1
Out: 7.74

In: Requested read-out: pIC50. Entry: N#Cc1cc(-c2ccnc3[nH]c(C4=CCNCC4)cc23)ccc1OC1CCOCC1
Out: 7.40

In: Requested read-out: pIC50. Entry: CN1CCN(C(=O)c2ccc(-c3cc4c(-c5ccc(OC6CCOCC6)c(C#N)c5)ncnc4[nH]3)cc2)CC1
Out: 8.73

In: Requested read-out: pIC50. Entry: N#Cc1cc(-c2ncnc3[nH]c(-c4ccc(N5CCOCC5)cc4)cc23)ccc1OC1CC2(COC2)C1
Out: 7.02

In: Requested read-out: pIC50. Entry: N#Cc1cc(-c2ccnc3[nH]c(-c4ccc(N5CCOCC5)cc4)cc23)cnc1OC1CCOCC1
Out: 6.62

In: Requested read-out: pIC50. Entry: N#Cc1cc(-c2ncnc3[nH]c(-c4cccc(N5CCOCC5)c4)cc23)ccc1CN1CCOCC1
Out: 6.00
